TARGET OF ASSAY: RORc ligand binding domain (Homo sapiens)
Sequence (P51449 269-508 limits assumed): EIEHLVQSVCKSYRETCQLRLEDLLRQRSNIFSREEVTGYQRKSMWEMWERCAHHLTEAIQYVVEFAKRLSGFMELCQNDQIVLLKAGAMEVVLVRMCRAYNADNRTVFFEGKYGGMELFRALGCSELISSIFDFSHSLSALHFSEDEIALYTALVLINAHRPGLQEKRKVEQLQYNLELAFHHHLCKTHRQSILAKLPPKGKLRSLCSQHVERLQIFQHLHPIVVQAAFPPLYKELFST
PROTOCOL: In vitro RORc ligand binding assay (25-[3H]hydroxycholesterol displacement)
QUANTITY MEASURED: pIC50
In plain terms, pIC50 is the concentration in mol/L turned into minus its base-10 logarithm.

Example compounds with recorded pIC50:
C[C@H]1CC[C@H](c2ccccc2)S(=O)(=O)N1Cc1cc(F)c(C2(c3ncn(CCO)n3)CCOCC2)cc1F : 7.24
C[C@H]1CC[C@H](c2ccccc2)S(=O)(=O)N1Cc1cc(F)c(C2(NCc3ccnn3C)COC2)cc1F : 7.05
C[C@H]1CC[C@H](c2ccccc2)S(=O)(=O)N1Cc1cc(F)c([C@]2(c3n[nH]c(=O)o3)C[C@@H](CC#N)C2)cc1F : 8.15
C[C@H]1CC[C@H](c2ccccc2)S(=O)(=O)N1Cc1cc(F)c(C2(NC(=O)c3cocn3)CCOCC2)cc1F : 8.32
C[C@H]1CC[C@H](c2ccccc2)S(=O)(=O)N1Cc1ccc(C2(N3C=NC(=O)/C3=C\O)CCOCC2)cc1F : 7.08
C[C@H]1CC[C@H](c2ccccc2)S(=O)(=O)N1Cc1cc(F)c([C@]2([C@H](O)Cc3ncn[nH]3)C[C@](C)(O)C2)cc1F (racemic) : 7.30

Exam item: Returns the measured pIC50 for the input compound. Input: C[C@H]1CC[C@H](c2ccccc2)S(=O)(=O)N1Cc1cc(F)c(C2(NCc3cnn(C)c3)COC2)cc1F
Marked response: 7.16
